Origin of measurements: PubChem BioAssay (NCI)

test system: LOX IMVI melanoma; assay: NCI-60 one-dose screen, 48 h (100 = growth as untreated, 0 = no growth, -100 = all killed); conditions: 10 µM unless noted
Compounds without any hit were thinned out: in the full panel of roughly 83,000, 20% have a hit.
Entries and their growth
Provide only the numeric value, understood in %.

compound	growth / %
O=C1CCCCC1CN1CCCCC1 (stereo not given)	95.4
CCCn1cc2c3c(cccc31)[C@H]1C[C@@H](C)CN(C)[C@@H]1C2	88.5
Cc1c2ccncc2c(C)c2c1[nH]c1ccccc12	-77.6

Task: So what growth did "CC1(C)N=C(N)N=C(N)N1c1ccc(CCC(=O)Nc2ccc(S(=O)(=O)F)cc2)cc1" get with LOX IMVI melanoma?
Output: 15.8

Task: So what growth did COCC1OC2OC3C(COC)OC(OC4C(COC)OC(OC5C(COC)OC(OC6C(COC)OC(OC7C(COC)OC(OC8C(COC)OC(OC1C(O)C2O)C(O)C8O)C(O)C7O)C(O)C6O)C(O)C5O)C(O)C4O)C(O)C3O (stereo not given) (tested in a mixture with another compound) get with LOX IMVI melanoma?
Output: 102

Task: So what growth did "O=C(CBr)OCCOC(=O)CBr" get with LOX IMVI melanoma?
Output: 37.1

Task: So what growth did "COc1ccn(C)c(=O)c1C#N" get with LOX IMVI melanoma?
Output: 97

Task: So what growth did "CC1(C)S[C@H]2CC[C@H]3OC(=O)[C@@H]1N23" get with LOX IMVI melanoma?
Output: 103

Task: So what growth did "COc1cc(C=C2C(=O)NC(=O)NC2=O)ccc1O" get with LOX IMVI melanoma?
Output: 102

Task: So what growth did "CN(C)c1ccc(C=C2C(=O)NC(=O)NC2=O)cc1" get with LOX IMVI melanoma?
Output: 85.8

Task: So what growth did "Cn1cc(-c2csc(-c3cn(CCCCN4CCOCC4)c4ccc(F)cc34)n2)c2cccnc21" get with LOX IMVI melanoma?
Output: 67.6

Task: So what growth did "COc1cc(-c2ccc(N)c(OC)c2)ccc1N" get with LOX IMVI melanoma?
Output: 88.9

Task: So what growth did "Cc1nnc([S-])o1.[Au+].c1ccc([PH+](c2ccccc2)c2ccccc2)cc1" get with LOX IMVI melanoma?
Output: 13.2

Task: So what growth did "C[C@]12CCC(=O)C[C@@H]1CC[C@@H]1[C@@H]2CC[C@]2(C)[C@@H](OC(=O)N(CCCl)N=O)CC[C@@H]12" get with LOX IMVI melanoma?
Output: 22.6
